Target: Fatty acid synthase (Homo sapiens)
Sequence (P49327 whole entry, the tested form may be a part): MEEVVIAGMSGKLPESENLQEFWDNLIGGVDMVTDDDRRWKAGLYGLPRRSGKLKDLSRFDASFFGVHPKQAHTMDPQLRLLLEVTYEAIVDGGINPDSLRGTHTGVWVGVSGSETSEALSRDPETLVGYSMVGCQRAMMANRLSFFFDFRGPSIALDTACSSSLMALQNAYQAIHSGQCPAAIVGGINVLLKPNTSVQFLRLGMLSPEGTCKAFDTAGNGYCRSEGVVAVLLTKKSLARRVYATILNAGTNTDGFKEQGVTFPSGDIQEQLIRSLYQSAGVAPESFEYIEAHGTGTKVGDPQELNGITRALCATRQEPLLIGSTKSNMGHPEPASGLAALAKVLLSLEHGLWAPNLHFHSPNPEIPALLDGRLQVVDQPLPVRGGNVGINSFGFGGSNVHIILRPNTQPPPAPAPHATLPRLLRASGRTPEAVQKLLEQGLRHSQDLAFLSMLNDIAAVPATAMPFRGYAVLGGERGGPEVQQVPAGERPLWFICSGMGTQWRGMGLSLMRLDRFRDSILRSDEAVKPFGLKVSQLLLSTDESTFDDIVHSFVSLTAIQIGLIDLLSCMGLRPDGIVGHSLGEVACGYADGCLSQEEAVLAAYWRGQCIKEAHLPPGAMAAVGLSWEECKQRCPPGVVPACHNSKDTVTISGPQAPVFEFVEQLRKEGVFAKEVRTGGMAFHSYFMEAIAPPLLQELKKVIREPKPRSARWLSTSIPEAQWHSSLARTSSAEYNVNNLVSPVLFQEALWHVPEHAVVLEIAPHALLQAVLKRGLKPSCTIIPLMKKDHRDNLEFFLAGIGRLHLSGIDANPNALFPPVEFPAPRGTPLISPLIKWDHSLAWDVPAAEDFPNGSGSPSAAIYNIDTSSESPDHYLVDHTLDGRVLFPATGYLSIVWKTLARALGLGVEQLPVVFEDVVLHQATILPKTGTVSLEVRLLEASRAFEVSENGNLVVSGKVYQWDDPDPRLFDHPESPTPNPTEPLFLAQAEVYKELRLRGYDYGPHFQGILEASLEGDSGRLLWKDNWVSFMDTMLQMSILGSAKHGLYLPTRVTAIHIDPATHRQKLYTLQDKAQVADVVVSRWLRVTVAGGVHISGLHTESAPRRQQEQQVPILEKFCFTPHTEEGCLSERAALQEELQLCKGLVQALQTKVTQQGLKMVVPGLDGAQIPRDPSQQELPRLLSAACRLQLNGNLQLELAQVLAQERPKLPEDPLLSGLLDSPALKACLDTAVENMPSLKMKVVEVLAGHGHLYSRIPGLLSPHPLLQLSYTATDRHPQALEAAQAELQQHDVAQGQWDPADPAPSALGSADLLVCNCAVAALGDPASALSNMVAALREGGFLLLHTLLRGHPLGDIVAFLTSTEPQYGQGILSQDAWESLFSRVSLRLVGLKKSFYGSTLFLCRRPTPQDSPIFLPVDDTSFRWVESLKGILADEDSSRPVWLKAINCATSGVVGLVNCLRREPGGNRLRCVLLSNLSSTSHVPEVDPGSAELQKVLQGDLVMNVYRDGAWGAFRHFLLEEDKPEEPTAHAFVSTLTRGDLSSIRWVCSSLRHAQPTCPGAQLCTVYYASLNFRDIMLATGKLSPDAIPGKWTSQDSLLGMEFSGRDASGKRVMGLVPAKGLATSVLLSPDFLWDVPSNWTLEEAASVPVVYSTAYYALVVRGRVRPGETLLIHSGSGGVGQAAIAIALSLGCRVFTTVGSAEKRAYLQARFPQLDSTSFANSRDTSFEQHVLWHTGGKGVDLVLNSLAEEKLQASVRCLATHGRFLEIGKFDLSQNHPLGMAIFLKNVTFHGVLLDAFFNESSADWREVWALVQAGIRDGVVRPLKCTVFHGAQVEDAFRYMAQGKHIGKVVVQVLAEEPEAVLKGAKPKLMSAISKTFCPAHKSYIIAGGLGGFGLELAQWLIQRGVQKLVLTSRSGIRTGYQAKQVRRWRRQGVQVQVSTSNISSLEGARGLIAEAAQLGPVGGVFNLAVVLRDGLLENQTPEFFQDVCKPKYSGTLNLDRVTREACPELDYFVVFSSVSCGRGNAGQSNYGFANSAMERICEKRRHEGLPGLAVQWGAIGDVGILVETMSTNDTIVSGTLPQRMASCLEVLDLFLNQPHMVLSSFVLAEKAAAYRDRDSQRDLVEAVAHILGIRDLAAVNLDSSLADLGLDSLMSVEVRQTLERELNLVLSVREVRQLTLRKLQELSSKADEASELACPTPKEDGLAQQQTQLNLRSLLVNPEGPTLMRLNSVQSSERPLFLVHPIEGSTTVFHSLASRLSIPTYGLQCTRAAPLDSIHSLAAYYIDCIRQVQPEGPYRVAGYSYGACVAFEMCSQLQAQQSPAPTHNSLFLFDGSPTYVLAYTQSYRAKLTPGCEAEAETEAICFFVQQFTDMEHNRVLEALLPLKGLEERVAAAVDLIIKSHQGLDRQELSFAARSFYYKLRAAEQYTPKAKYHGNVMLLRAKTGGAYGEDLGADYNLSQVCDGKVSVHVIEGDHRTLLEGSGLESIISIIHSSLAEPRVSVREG
Assay: FAS thioesterase domain inhibitors, dose response, biochemical, endpoint fluorescence intensity, uHTS hits (AID 624327);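 further: fluorescence from hydrolysis of an O-methyl fluorescein acyl ester substrate by the enzyme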
Type: functional
The source made the active and inactive calls.
Hi! Could you answer with just one of these? 1.0 = active, 0.0 = inactive

>>> class_label("COc1cc(CNc2nc(C)c([N+](=O)[O-])c(C)c2C#N)cc(OC)c1OC")
0.0

What outcome does the record of this test show for CC(C)(C)NC(=O)NC(=O)COC(=O)C1CCN(S(=O)(=O)c2cccs2)CC1 ?
1.0

What outcome does the record of this test show for CCOC(=O)c1c(NC(=O)CSc2nnc(-c3ccccc3C)n2C)sc(C(C)=O)c1C ?
1.0

What outcome does the record of this test show for O=C(CCC(=O)Nc1ccc(F)cc1)N/N=C/c1cc([N+](=O)[O-])ccc1O ?
0.0

What outcome does the record of this test show for Cc1ccc([N+](=O)[O-])cc1S(=O)(=O)Nc1ccc(-c2ccc(N3CCCC3)nn2)cc1 ?
1.0

What outcome does the record of this test show for CC1CCc2c(sc3nc(CN4CCN(S(=O)(=O)c5ccccc5[N+](=O)[O-])CC4)nc(O)c23)C1 (stereo unspecified) ?
1.0

----------
Biological target: UniProt P9WHJ3
Assay: Fluorescence Cell-Free Homogeneous Dose Retest to Identify Inhibitors of RecA-Intein Splicing Activity. [Related pubchem assays (depositor defined):AID2097, AID2223, AID489010, AID492950]
Type: functional
Active and inactive are the calls of the source.
// reported EC50 per item

Some molecules with known EC50 results, for comparison:
>>> result("CC(C)(C)Nc1nc(Cl)nc(N(C#N)CN2C(=O)c3ccccc3S2(=O)=O)n1")
"18.4 µM (active)"
>>> result("CSc1nc(O)c(Nc2cccc(Cl)c2)c(O)n1")
"1.92 µM (active)"
>>> result("COCCCNC(=O)c1ccc2c3c(onc13)-c1ccccc1C2=O")
"13 µM (active)"
>>> result("CCc1ccc(OCC(=O)N/N=C2\\CC(=O)c3ccccc32)cc1")
"1.24 µM (active)"
>>> result("Cc1cc[n+](C2=C([N-]S(=O)(=O)c3cccs3)C(=O)c3ccccc3C2=O)cc1C")
"3.8 µM (active)"
>>> result("Cc1ccc(C2C(C#N)=C(N)Oc3n[nH]c(-c4cccs4)c32)cc1 (stereo not given)")
"1.12 µM (active)"

UniProt P9WHJ3 / EC50 / Cc1ccc(C)c(/N=C2\C(Cl)=C(O)OC2OC(=O)c2ccco2)c1 (stereo not given) : value?
9.37 µM (active)

UniProt P9WHJ3 / EC50 / O=[N+]([O-])c1c(NCc2ccco2)ccc2nonc12 : value?
10.1 µM (active)

UniProt P9WHJ3 / EC50 / CCOC(=O)C1=C(c2ccc(OC)cc2)C(=O)c2ccccc2C1=O : value?
1.83 µM (active)

UniProt P9WHJ3 / EC50 / Cc1cc(C(=O)Cn2ncc(Cl)c(Cl)c2=O)c(C)n1CC(F)(F)F : value?
2.72 µM (active)

UniProt P9WHJ3 / EC50 / O=C(c1cccc(C(F)(F)F)c1)C1CCCN(Cc2ncc[nH]2)C1 (stereo not given) : value?
> 380 µM (inactive)

UniProt P9WHJ3 / EC50 / Oc1nc(Nc2ccccc2)cc2cc(Br)ccc12 : value?
7 µM (active)

UniProt P9WHJ3 / EC50 / Cc1ccccc1OCC(=O)Nc1ccccc1N1CCCCC1 : value?
242 µM (active)

UniProt P9WHJ3 / EC50 / COC(=O)[C@@]1(Cc2ccccc2)[C@@H]2C(=CC(=O)[C@H]2CC(=O)C(=O)N(C)C)CN1C(=O)c1ccccc1 : value?
5.12 µM (active)

UniProt P9WHJ3 / EC50 / CCC(=O)OCCNc1cc(Sc2nccn2C)c2nonc2c1[N+](=O)[O-] : value?
1.37 µM (active)

UniProt P9WHJ3 / EC50 / CC(=O)c1cccc(-c2ccc3c(=O)[nH]c(Nc4ccccc4)cc3c2)c1 : value?
2.14 µM (active)

UniProt P9WHJ3 / EC50 / O=C1c2cc(F)ccc2-n2c1nc1ccccc1c2=O : value?
> 380 µM (inactive)

UniProt P9WHJ3 / EC50 / Cc1ccc(C(=O)n2cnc3ccccc32)cc1C : value?
124 µM (active)

UniProt P9WHJ3 / EC50 / O=C1C=C(N(CCO)Cc2ccccc2)c2ccccc2C1=O : value?
0.402 µM (active)

UniProt P9WHJ3 / EC50 / CCCC(=O)OCCNc1cc(SCCC(=O)OC)c2nonc2c1[N+](=O)[O-] : value?
4.87 µM (active)

UniProt P9WHJ3 / EC50 / Cc1ccc(S(=O)(=O)c2c(N)n(CCC(C)C)c3nc4ccccc4nc23)cc1 : value?
3.98 µM (active)

UniProt P9WHJ3 / EC50 / O=C1C(=O)c2ccccc2-c2ccccc21 [9,10-PHENANTHRENEQUINONE] : value?
7.45 µM (active)

UniProt P9WHJ3 / EC50 / O=C(c1c[nH]c(C(=O)C(Cl)(Cl)Cl)c1)c1ccc(F)cc1Cl : value?
4.49 µM (active)

UniProt P9WHJ3 / EC50 / Cc1ccc(SCC2=NNC(=O)C2)cc1 : value?
1.01 µM (active)

UniProt P9WHJ3 / EC50 / Nc1ccc2[nH]c(Cc3ccccc3)nc2c1 : value?
55.9 µM (active)

----------
Target: Carboxy-terminal domain RNA polymerase II polypeptide A small phosphatase 1 (Homo sapiens)
Sequence (Q9GZU7 whole entry, the tested form may be a part): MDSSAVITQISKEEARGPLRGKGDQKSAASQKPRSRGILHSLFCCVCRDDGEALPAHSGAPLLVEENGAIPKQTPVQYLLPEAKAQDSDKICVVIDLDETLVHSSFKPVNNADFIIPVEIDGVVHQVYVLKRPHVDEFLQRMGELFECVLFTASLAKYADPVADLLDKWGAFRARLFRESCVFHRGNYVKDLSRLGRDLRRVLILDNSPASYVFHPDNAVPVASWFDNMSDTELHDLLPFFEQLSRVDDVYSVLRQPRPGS
Experiment: inhibitors of CTDSP1, concentration-response testing, biochemical assay, absorbance-based, actives from ultra-high-throughput screening (AID 540297)
Format: functional
Activity calls are given as the source filed them.
Experimental endpoint: IC50

Some compounds with known IC50 results, for comparison:
>>> result("O=C(O)CSc1ncnc2c1sc1nc(-c3ccccc3)c3c(c12)CCC3")
"4.04 µM (active)"
>>> result("C=CCOCCN1C(=O)C2C3C=CC(C2C1=O)C1C2C(=O)N(CCOCC=C)C(=O)C2C31 (stereo unspecified)")
"19.9 µM (active)"
>>> result("N#Cc1ccsc1NC(=O)COC(=O)CCS(=O)(=O)c1ccccc1")
"8.32 µM (active)"
>>> result("COc1ccc(Cl)cc1NC(=O)CCS(=O)(=O)c1ccc(Br)cc1")
"4.16 µM (active)"

Carboxy-terminal domain RNA polymerase II polypeptide A small phosphatase 1 (Homo sapiens) / IC50 / COc1cc2cnc(-c3ccccc3)c(-c3cc(OC)c(OC)c(OC)c3)c2cc1OC : value?
67.2 µM (active)

Carboxy-terminal domain RNA polymerase II polypeptide A small phosphatase 1 (Homo sapiens) / IC50 / O=C(CSc1ccsc1[N+](=O)[O-])Nc1cccc(F)c1 : value?
3.65 µM (active)

Carboxy-terminal domain RNA polymerase II polypeptide A small phosphatase 1 (Homo sapiens) / IC50 / Cc1ccc(NC(=O)N2CCC(NC(=O)c3cccc(C)c3)CC2)cc1 : value?
10.5 µM (active)

----------
Experiment: inhibitors of firefly luciferase expression or activity, dose response, H4 neuroglioma cells, luminescence (AID 1990)
Assay type: functional, cell-based
Calls of active or inactive are those of the source.
// reported EC50 per item

Which EC50 is listed for COCCn1c(C)cc(C(=O)COC(=O)c2[nH]nc3ccccc23)c1C ?
4.23 µM (inconclusive)

Which EC50 is listed for CC(=O)O[C@H]1C(=O)[C@@]2(C)[C@H]([C@H](OC(=O)c3ccccc3)[C@]3(O)C[C@H](OC(=O)[C@H](O)[C@@H](NC(=O)c4ccccc4)c4ccccc4)C(C)=C1C3(C)C)[C@]1(OC(C)=O)CO[C@@H]1C[C@@H]2O ?
10.6 µM (active)

Which EC50 is listed for Cc1ccc(C)c(N(CC(=O)Nc2ccccc2C(=O)NCc2ccco2)S(=O)(=O)c2ccccc2)c1 ?
15.6 µM (active)

Which EC50 is listed for O=C(Cn1cc2c(n1)CCCC2)NCc1cccc(Cl)c1 ?
> 120 µM (not active)

----------
Molecular target: FAD-linked sulfhydryl oxidase ALR (Homo sapiens)
Sequence (P55789 whole entry): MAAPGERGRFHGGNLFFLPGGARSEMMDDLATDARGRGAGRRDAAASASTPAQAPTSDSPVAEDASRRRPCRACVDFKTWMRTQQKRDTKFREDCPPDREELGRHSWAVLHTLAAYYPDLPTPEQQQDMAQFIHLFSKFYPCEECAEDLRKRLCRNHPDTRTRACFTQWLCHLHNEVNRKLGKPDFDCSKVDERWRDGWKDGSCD
Test: inhibitors of human ALR sulfhydryl oxidase, dose response, biochemical, H2O2 detection, luminescence, cherry-pick (AID 493248)
Active and inactive are the calls of the source.
Experimental endpoint: AC50

Some compounds with known AC50 results, for comparison:
>>> result("Cc1nc(C(=O)N2CCCC(Nc3ccc(C)c(C)c3)C2)cs1 (stereo not drawn)")
"0.479 µM (active)"
>>> result("Cc1ccc(S(=O)(=O)N2[C@@H](c3ccc(Cl)cc3)C(C(=O)O)=CC[C@H]2c2ccc(C(C)C)cc2)cc1")
"10.3 µM (active)"
>>> result("CSc1nc(O)c(Nc2cccc(Cl)c2)c(O)n1")
"1.14 µM (active)"
>>> result("COc1ccccc1N1CCN(S(=O)(=O)c2cccc(F)c2)CC1")
"28.8 µM (active)"

FAD-linked sulfhydryl oxidase ALR (Homo sapiens) / AC50 / Sc1nnc(Nc2ccccc2)s1 : value?
1.91 µM (active)

FAD-linked sulfhydryl oxidase ALR (Homo sapiens) / AC50 / CC(=O)Nc1ccc2c(c1)nc1n2CCSC1 : value?
0.34 µM (active)

FAD-linked sulfhydryl oxidase ALR (Homo sapiens) / AC50 / Cn1cnc([N+](=O)[O-])c1Sc1ccc([N+](=O)[O-])cc1 : value?
8.39 µM (active)

FAD-linked sulfhydryl oxidase ALR (Homo sapiens) / AC50 / Oc1cccc(Nc2c3ccccc3nc3ccccc23)c1 : value?
2.66 µM (active)
